Listing of recorded cAMP EC50 by entry.
SYSTEM NAME: T1, mouse GLP-1 receptor (mouse, UniProt O35659 22-463)
T1 sequence (looked up): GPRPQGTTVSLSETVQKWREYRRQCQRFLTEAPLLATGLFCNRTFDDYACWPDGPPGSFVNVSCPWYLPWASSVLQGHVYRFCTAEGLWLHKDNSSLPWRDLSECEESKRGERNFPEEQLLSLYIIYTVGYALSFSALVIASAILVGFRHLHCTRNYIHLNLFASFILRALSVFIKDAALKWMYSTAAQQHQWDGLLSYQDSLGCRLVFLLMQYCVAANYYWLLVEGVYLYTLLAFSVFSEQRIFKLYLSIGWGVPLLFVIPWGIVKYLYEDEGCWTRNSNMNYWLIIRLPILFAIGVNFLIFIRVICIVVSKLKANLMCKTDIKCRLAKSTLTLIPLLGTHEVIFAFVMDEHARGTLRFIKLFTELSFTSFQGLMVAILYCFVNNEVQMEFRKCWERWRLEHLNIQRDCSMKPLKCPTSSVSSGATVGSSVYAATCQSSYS
MEASUREMENT PROTOCOL: cell-based or functional assay
Quick reminder: number only, in nM, skip the unit.

Recorded cAMP EC50, per entry:
> print(dat)
                                     binder  observed.measurement
1  IP131 (Fc fusion) YSEGTFTSDYSKLLEEEAVRLFIEWLLAGGGGGGSGGGGSGGGGSGGGGSATHTCPPCPAPEF                     1
2  IP354 (Fc fusion) YSEGMHTSDFSKLLEEEAVRLFIEWLLAGGGGGGSGGGGSGGGGSGGGGSATHTCPPC                    13
3  IP371 (Fc fusion) YSEGMHTSDLSKLLEEEAVRLFIEWLLAGGGGGGGSGGGGSGGGGSGGGGSACPPC                   8.5
4  IP294 (Fc fusion) YSEGTFTSDYSKLLEEEAVRLFICWLVCGPGGGGGGGGGGGGGGGGGGGGACPPC                   350

Read the next record carefully.
Documented cAMP EC50 of IP274 (Fc fusion) YSEGTFTSDYSKLLEKEAVRLFIEWLLKGPGGGGGSGGGGSGGGGSGGGGSATHTCPPC : 1.2

Reference source: patent US20160185837A1
